Attribution: patent US7794719

# experimentalTarget: Aβ1-40 fibers (human)
# assayMethodText: SPR
For each of the binders below, state its Kd.
Reply with just the number (in pM).

Q) Fill in: Kd of MS-R 7.11.H1 x 7.11.L1 IgG1 (antibody, V domains shown) VH: QLVESGGGLVQPGGSLRLSCAASGFTFSSYAMSWVRQAPGKGLEWVSGINAAGFRTYYADSVKGRFTISRDNSKNTLYLQMNSLRAEDTAVYYCARGKGNTHKPYGYVRYFDVWGQGTLVTVSS VL: DIVLTQSPATLSLSPGERATLSCRASQRILRIYLAWYQQKPGQAPRLLIYGASSRATGVPARFSGSGSGTDFTLTISSLEPEDFATYYCQQVYSPPHTFGQGTKVEIKR is ___
A) 110

Q) Fill in: Kd of MS-R 7.9.H7 IgG1 (antibody, V domains shown) VH: QVELVESGGGLVQPGGSLRLSCAASGFTFSSYAMSWVRQAPGKGLEWVSAINASGTRTYYADSVKGRFTISRDNSKNTLYLQMNSLRAEDTAVYYCARGKGNTHKPYGYVRYFDVWGQGTLVTVSS VL: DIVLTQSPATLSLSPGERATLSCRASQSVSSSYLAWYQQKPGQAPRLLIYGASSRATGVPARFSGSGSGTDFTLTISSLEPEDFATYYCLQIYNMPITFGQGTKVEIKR is ___
A) 250
